- assay-target: T1, recombinant human CD3 epsilon/gamma heterodimer (human, UniProt P07766 23-126; P09693 23-116)
- T1 construct: Recombinant protein in solution (200-50 nM) in the Octet assay; also called hCD3 E/G
- T1 sequence (P07766 23-126, chain 1 of 2): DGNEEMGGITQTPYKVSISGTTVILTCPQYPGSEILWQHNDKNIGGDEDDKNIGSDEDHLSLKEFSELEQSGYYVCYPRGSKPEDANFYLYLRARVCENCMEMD
- T1 sequence (P09693 23-116, chain 2 of 2): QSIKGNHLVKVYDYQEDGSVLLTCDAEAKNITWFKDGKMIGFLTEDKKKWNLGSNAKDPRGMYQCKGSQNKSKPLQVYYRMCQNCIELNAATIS
- experiment-summary: Octet BLI, mAb on FAB2G sensor, hCD3 E/G 200-50 nM; R^2 0.99
assay-readout: kon (M⁻¹ s⁻¹)
Entry rule: numbers only, all in M⁻¹ s⁻¹.

Ask | What does the record list as kon for ABL-CD3-41 (antibody, V domains shown, Chimeric hybridoma mAb: human V, CH1, upper hinge; mouse middle hinge, CH2, CH3) VH: EVQLVESGGGLVKPGGSLRLSCAASGFTFSSYSMNWVRQAPGKGLEWVSSVNSRGSYIYYADSVKGRFTISRDNAKDSLYLQMNSLRADDTAVYYCARDRRELLLDYWGQGTLVTVSS VL: SYELTQPPSVSVSPGQTARITCSGDALPKKYAYWYQQKSGQAPVLVIYEDSKRPSGIPERFSGSSSGTMATLTISGAQVEDEADYYCYSTDSSGNHCWVFGGGTKLTVL ?
Reply | 846000

Ask | What does the record list as kon for ABL-CD3-54 (antibody, V domains shown, Chimeric hybridoma mAb: human V, CH1, upper hinge; mouse middle hinge, CH2, CH3) VH: EVQLVESGGGLVKPGGSLRLSCAASGFTFSSYSMNWVRQAPGKGLEWVSSISRSSRYIFYADSVRGRFTISRDNAKNSLYLQMNSLRAEDTAVYYCAREKRELLFDYWGQGTLVTVSS VL: NSMLTQPHSVSESPGKTVTISCTRSSGSIASYYVQWYQQRPGSSPTTVIYEDNQRPSGVPDRFSGSIDSSSNSASLTISGLKTEDEADYYCQSFDSSNRVFGGGTKLTVL ?
Reply | 134000

Ask | What does the record list as kon for ABL-CD3-55 (antibody, V domains shown, Chimeric hybridoma mAb: human V, CH1, upper hinge; mouse middle hinge, CH2, CH3) VH: EVQLVESGGGLVKPGGSLRLSCAASGFTFSIYSMNWVRQAPGKGLEWVSSISSGSSYIYYADSVKGRFTISRDNAKSSLFLQMNSLRAEDTAVYYCAREKRELLFDYWGQGTLVTVSS VL: NFMLTQPHSVSESPGKTVTISCTRSSGSIASNYVQWYQQRPGSSPTTVIYEDNQRPSGVPDRFSGSIDRSSNSASLTISGLKTEDEADYYCQSYDSSNRVFGGGTKLTVL ?
Reply | 636000

Ask | What does the record list as kon for ABL-CD3-47 (antibody, V domains shown, Chimeric hybridoma mAb: human V, CH1, upper hinge; mouse middle hinge, CH2, CH3) VH: EVQLVESGGGLVQPGGSLRLSCAASGFTFSRYSMNWVRQAPGKGLEWVSYISRSSTTIYYADSVKGRFTISRDNAKNSLYLQMNSLRDEDAAVYYCARERWELLYFDYWGQGTLVTVSS VL: NFMLTQPHSVSESPGKTVTISCTRSSGSIASKYVQWYQQRPGSSPTTVIYEDNQRPSGVPDRFSGSIDSSSNSASLTISGLKTEDEADYYCQSYYSNNRVFGGGTKLTVL ?
Reply | 217000

Ask | What does the record list as kon for ABL-CD3-26 (antibody, V domains shown, Chimeric hybridoma mAb: human V, CH1, upper hinge; mouse middle hinge, CH2, CH3) VH: EVHLVESGGGLVKPGGSLRLSCAASGFTFSSYSMNWVRQAPGKGLEWVSSISSSSTYIYYADSVKGRFTISRDNAKNSLYLQMNSLRAEDTAVYYCAREPRTLGMDYWGQGILVTVSS VL: NFMLTQPHSVSESPGKTVTISCTRSSGSIASNYVQWYQQRPGSSPTTVIYEDNHRPSGVPDRFSGSIDSSSNSASLTISGLKTEDEADYFCQSFDSSNRVFGGGTKLTVL ?
Reply | 132000
